Reference source: paper PMC6026317

biological target: Soluble human FGFR1c/KLB receptor complex (FGFR1c ectodomain-Fc with soluble KLB) (human, UniProt P11362 22-376; Q86Z14 1-996); assay: AlphaScreen competition with biotinylated FGF21
Sequence (P11362 22-376, chain 1 of 2): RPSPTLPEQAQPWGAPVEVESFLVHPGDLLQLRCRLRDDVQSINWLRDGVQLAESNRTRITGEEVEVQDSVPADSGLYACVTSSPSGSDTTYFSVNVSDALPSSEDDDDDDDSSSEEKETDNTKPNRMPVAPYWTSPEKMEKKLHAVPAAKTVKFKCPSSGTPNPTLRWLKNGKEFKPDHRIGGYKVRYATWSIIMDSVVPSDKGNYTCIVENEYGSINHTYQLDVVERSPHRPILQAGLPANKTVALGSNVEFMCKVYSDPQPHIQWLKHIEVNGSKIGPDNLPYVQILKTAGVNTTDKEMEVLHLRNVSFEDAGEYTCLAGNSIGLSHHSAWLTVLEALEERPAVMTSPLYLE
Sequence (Q86Z14 53-996, chain 2 of 2): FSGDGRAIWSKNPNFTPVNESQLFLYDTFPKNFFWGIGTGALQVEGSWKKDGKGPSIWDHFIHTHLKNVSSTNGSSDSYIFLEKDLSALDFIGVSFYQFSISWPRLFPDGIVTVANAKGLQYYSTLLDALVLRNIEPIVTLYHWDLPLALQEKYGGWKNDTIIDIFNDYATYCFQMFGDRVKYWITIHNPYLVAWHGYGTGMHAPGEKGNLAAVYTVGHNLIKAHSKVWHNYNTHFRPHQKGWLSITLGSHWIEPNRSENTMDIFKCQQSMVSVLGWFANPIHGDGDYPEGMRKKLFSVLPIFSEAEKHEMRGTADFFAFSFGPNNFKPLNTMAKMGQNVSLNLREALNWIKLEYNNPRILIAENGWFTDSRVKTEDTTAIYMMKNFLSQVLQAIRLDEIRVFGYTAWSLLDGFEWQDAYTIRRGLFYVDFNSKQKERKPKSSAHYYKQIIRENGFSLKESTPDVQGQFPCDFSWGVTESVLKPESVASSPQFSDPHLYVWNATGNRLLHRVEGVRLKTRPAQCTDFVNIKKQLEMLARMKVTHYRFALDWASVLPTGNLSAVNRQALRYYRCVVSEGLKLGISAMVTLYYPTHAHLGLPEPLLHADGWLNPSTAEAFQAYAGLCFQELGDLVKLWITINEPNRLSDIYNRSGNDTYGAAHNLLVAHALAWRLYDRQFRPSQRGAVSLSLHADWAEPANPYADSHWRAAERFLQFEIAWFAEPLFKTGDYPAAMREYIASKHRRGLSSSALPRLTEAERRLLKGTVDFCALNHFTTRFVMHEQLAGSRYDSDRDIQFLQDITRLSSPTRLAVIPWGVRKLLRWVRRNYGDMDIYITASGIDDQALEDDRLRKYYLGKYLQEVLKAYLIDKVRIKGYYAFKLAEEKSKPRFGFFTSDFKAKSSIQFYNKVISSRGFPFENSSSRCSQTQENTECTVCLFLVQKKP
pIC50: −log10 of the molar value. Ends that are not written are not given here.
measured-property: pIC50

Illustrative cases are given below, each with its answer.
| binder | pIC50 |
| --- | --- |
| PPDVGSSDPLSMVGPSQGRSASYAS-NH2 [21C25 P177A] | 5.60 |
| PADVGSSDPLSMVGPSQGRSPSYAS-NH2 [21C25 P158A] | 6.05 |

[A] PPDVGSSDPLAMVGPSQGRSPSYAS-NH2 [21C25 S167A]
[B] PPDVGSSDPLSMVGPSQGASPSYAS-NH2 [21C25 R175A]
[C] PPDVGASDPLSMVGPSQGRSPSYAS-NH2 [21C25 S162A]
[D] APDVGSSDPLSMVGPSQGRSPSYAS-NH2 [21C25 P157A]
[E] PPDVGSSDPLSMVGPAQGRSPSYAS-NH2 [21C25 S172A]
Task item: Rank descending by pIC50. List the labels, following the order given in the request.
Reply: B, E, A, D, C

[1] PPAVGSSDPLSMVGPSQGRSPSYAS-NH2 [21C25 D159A]
[2] PPDVGSSDPLSMVGPSAGRSPSYAS-NH2 [21C25 Q173A]
Task item: Of 1 and 2 , whose reported pIC50 is numerically smaller? State the label of the item chosen.
Reply: 1
(1: 5.86, 2: 7.15)

[A] PPDVGSSDPLSMAGPSQGRSPSYAS-NH2 [21C25 V169A]
[B] PPDVGSSDPLSMVGPSQGRSPSYAA-NH2 [21C25 S181A]
Task item: Recorded pIC50 values differ for A and B ; which one is higher? // respond with label for picked entry
Reply: B
(B: 7.30, A: 5.51)

[A] PPDVGSSDPLSMVGPSQGRAPSYAS-NH2 [21C25 S176A]
[B] PPDVGSSDPLSMVGPSQARSPSYAS-NH2 [21C25 G174A]
Task item: Between item A and item B , which reported pIC50 is smaller? When you have decided, please share the label of that item.
Reply: A
(A: 5.50, B: 6.82)

[A] PPDVGSSDPLSMVGASQGRSPSYAS-NH2 [21C25 P171A]
[B] PPDVGSSDPLSMVGPSQGRSPAYAS-NH2 [21C25 S178A]
Task item: Would you let me know which has the greater pIC50 value, A or B ? Write the label of whichever entry you select.
Reply: A
(A: 6.89, B: 5.54)

[A] PPDAGSSDPLSMVGPSQGRSPSYAS-NH2 [21C25 V160A]
[B] PPDVGSADPLSMVGPSQGRSPSYAS-NH2 [21C25 S163A]
Task item: For A and B , which recorded pIC50 is lower? # reply format: chosen label
Reply: A
(A: 5.40, B: 6.72)

[P] PPDVGSSDPLSMVGPSQGRSPSAAS-NH2 [21C25 Y179A]
[Q] PPDVGSSDPLSMVAPSQGRSPSYAS-NH2 [21C25 G170A]
Task item: Hi there! Just curious which has the higher pIC50 between P and Q . Mark your answer with the label of the selected entry.
Reply: Q
(Q: 6.74, P: 5.59)
